# subject.of.test: P2Y purinoceptor 14 (Mus musculus, UniProt Q9ESG6)
# Sequence (Q9ESG6 whole entry): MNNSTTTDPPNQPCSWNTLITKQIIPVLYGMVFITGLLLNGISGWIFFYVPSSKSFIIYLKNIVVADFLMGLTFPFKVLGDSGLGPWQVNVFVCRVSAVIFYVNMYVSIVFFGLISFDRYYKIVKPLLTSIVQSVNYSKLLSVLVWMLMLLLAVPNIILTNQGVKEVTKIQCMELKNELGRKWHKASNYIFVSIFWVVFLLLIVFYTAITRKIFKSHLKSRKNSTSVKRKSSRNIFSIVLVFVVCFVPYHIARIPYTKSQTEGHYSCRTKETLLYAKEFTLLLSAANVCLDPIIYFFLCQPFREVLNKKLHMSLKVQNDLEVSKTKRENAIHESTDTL
# test.summary: Antagonist activity at mouse P2Y14 receptor expressed in HEK293 cells assessed as calcium flux by FLIPR assay
endpoint: log10(IC50) (log10 of the value in nM)
Scale: log10; quantity: IC50; unit before log: nM

Illustrative cases are given below, each with its answer.
O=C(O)c1cc(-c2ccccc2)c2ccc(OCc3c(Cl)cccc3Cl)cc2c1	2.28
Cc1cccc(C)c1COc1ccc2ccc(C(=O)O)cc2c1	4.11
Cc1cccc(C)c1COc1ccc2c(-c3ccsc3)cc(C(=O)O)cc2c1	1.41
Cc1cccc(C)c1COc1ccc2c(-c3ccccc3)cc(C(=O)O)cc2c1	2.04
O=C(O)c1cc(-c2ccc([C@@H](O)C(F)F)cc2)c2ccc(-c3ccc(C(F)(F)F)cc3)cc2c1	0.90

The reported P2Y purinoceptor 14 (Mus musculus, UniProt Q9ESG6) log10(IC50) of `O=C(O)c1cc(-c2ccc([C@H](O)C(F)(F)F)cc2)c2ccc(-c3ccc(C(F)(F)F)cc3)cc2c1` is 1.71

The reported P2Y purinoceptor 14 (Mus musculus, UniProt Q9ESG6) log10(IC50) of `O=C(O)c1cc2cc(-c3ccc(OC(F)(F)F)cc3)ccc2c(-c2ccsc2)c1O` is 3.11

The reported P2Y purinoceptor 14 (Mus musculus, UniProt Q9ESG6) log10(IC50) of O=C(O)c1cc(-c2ccc(C(O)C(F)(F)F)cc2)c2ccc(-c3ccc(C(F)(F)F)cc3)cc2c1 (centres undefined) is 1.11

The reported P2Y purinoceptor 14 (Mus musculus, UniProt Q9ESG6) log10(IC50) of `O=C(O)c1cc2cc(-c3ccc(OC(F)(F)F)cc3)ccc2c(-c2ccsc2)c1F` is 2.58

The reported P2Y purinoceptor 14 (Mus musculus, UniProt Q9ESG6) log10(IC50) of `O=C(O)c1cc(-c2ccsc2)c2ccc(-c3ccc(OC(F)(F)F)cc3)cc2c1` is 1.73

The reported P2Y purinoceptor 14 (Mus musculus, UniProt Q9ESG6) log10(IC50) of `Cc1cccc(C)c1COc1ccc2c(OCc3ccccc3)cc(C(=O)O)cc2c1` is 2.04

The reported P2Y purinoceptor 14 (Mus musculus, UniProt Q9ESG6) log10(IC50) of `Cc1cccc(C)c1OCc1ccc2c(-c3ccccc3)cc(C(=O)O)cc2c1` is 3.32

The reported P2Y purinoceptor 14 (Mus musculus, UniProt Q9ESG6) log10(IC50) of `O=C(O)c1cc(-c2ccccc2)c2ccc(OCc3ccccc3)cc2c1` is 3.54

The reported P2Y purinoceptor 14 (Mus musculus, UniProt Q9ESG6) log10(IC50) of `O=C(O)c1cc(-c2ccccc2)c2ccc(Oc3ccccc3)cc2c1` is 3.69

The reported P2Y purinoceptor 14 (Mus musculus, UniProt Q9ESG6) log10(IC50) of `O=C(O)c1cc(-c2cscc2C(O)(C(F)(F)F)C(F)(F)F)c2ccc(-c3ccc(OC(F)(F)F)cc3)cc2c1` is 2.54

The reported P2Y purinoceptor 14 (Mus musculus, UniProt Q9ESG6) log10(IC50) of `Cc1cc(F)cc(C)c1COc1ccc2c(-c3ccsc3)cc(C(=O)O)cc2c1` is 1.15

The reported P2Y purinoceptor 14 (Mus musculus, UniProt Q9ESG6) log10(IC50) of `CS(=O)(=O)c1ccc(-c2cc(C(=O)O)cc3cc(-c4ccc(C(F)(F)F)cc4)ccc23)cc1` is 1.30

The reported P2Y purinoceptor 14 (Mus musculus, UniProt Q9ESG6) log10(IC50) of `O=C(O)c1cc(-c2ccc([C@@H](O)C(F)(F)F)cc2)c2ccc(-c3ccc(C(F)(F)F)cc3)cc2c1` is 0.60
